Where do these numbers come from? They come from the Immune Epitope Database (IEDB).

system_name: HLA-A*11:01
method_summary: IEDB peptide-MHC binding, purified MHC/competitive/fluorescence; filed as Kd, often an IC50 or EC50 that approximates it; bounds were set here for any values at or beyond the usual limits of such assays
experimental_context: source organism: Human immunodeficiency virus 1
value_type: pKd
Numbers only, as −log10 of the molar value.

| sequence_record | pKd |
| --- | --- |
| RSLFNTVAVLY | 5.87 |

Ask: Would you kindly share the measured pKd for "VLYCVHQRV" ?
Result: 4.97

====

system_name: HLA-B*51:01
method_summary: IEDB peptide-MHC binding, purified MHC/competitive/radioactivity; filed as Kd, often an IC50 or EC50 that approximates it; bounds were set here for any values at or beyond the usual limits of such assays
experimental_context: source organism: Dengue virus 3 Martinique/1243/1999
value_type: Kd (µM)
One number for each entry, in µM.

Ask: Would you kindly share the measured Kd for "IPPTAGVLA" ?
Result: 6.14

====

system_name: HLA-B*27:05
method_summary: IEDB peptide-MHC binding, purified MHC/direct/fluorescence; filed as Kd, often an IC50 or EC50 that approximates it; bounds were set here for any values at or beyond the usual limits of such assays
experimental_context: source organism: Bacillus anthracis
value_type: Kd

Ask: Would you kindly share the measured Kd for "KLYVNGKAY" ?
Result: ≥ 20 µM

====

system_name: HLA-A*02:01
method_summary: IEDB peptide-MHC binding, purified MHC/competitive/fluorescence; filed as Kd, often an IC50 or EC50 that approximates it; bounds were set here for any values at or beyond the usual limits of such assays
experimental_context: source organism: Homo sapiens
I'd be grateful if you could share measured Kd for these entries.

Reference set (2 entries):
| sequence_record | Kd |
| --- | --- |
| WSTIWRQLY | ≥ 20 µM |
| SQLPPACPV | 0.0306 µM |

Ask: Would you kindly share the measured Kd for "WTDLFDNKV" ?
Result: ≥ 20 µM

====

I'd be grateful if you could share measured Kd for these entries.
system_name: HLA-A*31:01
method_summary: IEDB peptide-MHC binding, purified MHC/direct/fluorescence; filed as Kd, often an IC50 or EC50 that approximates it; bounds were set here for any values at or beyond the usual limits of such assays
experimental_context: source organism: Escherichia coli O157:H7

Could you tell me Kd for each of these sequences? They are listed below.
1. YECTSRHFT
2. EEDAAVDDL

Result:
1: ≥ 20 µM; 2: ≥ 20 µM

====

system_name: HLA-A*02:19
method_summary: IEDB peptide-MHC binding, purified MHC/direct/fluorescence; filed as Kd, often an IC50 or EC50 that approximates it; bounds were set here for any values at or beyond the usual limits of such assays
experimental_context: source organism: Burkholderia mallei ATCC 23344
pKd: −log10 of the molar value.
value_type: pKd

Ask: Would you kindly share the measured pKd for "LARFPCNVI" ?
Result: ≤ 4.70

====

system_name: HLA-A*11:01
method_summary: IEDB peptide-MHC binding, purified MHC/competitive/fluorescence; filed as Kd, often an IC50 or EC50 that approximates it; bounds were set here for any values at or beyond the usual limits of such assays
experimental_context: source organism: Acinetobacter baumannii
value_type: Kd (nM)
Numbers only, in nM.

Ask: Would you kindly share the measured Kd for "SIYAGNTPK" ?
Result: 15

====

system_name: HLA-B*44:02
method_summary: IEDB peptide-MHC binding, purified MHC/direct/fluorescence; filed as Kd, often an IC50 or EC50 that approximates it; bounds were set here for any values at or beyond the usual limits of such assays
experimental_context: source organism: West Nile virus
value_type: Kd

Ask: Would you kindly share the measured Kd for "TRAVGKPLL" ?
Result: ≥ 20 µM

====

system_name: HLA-A*02:16
method_summary: IEDB peptide-MHC binding, purified MHC/direct/fluorescence; filed as Kd, often an IC50 or EC50 that approximates it; bounds were set here for any values at or beyond the usual limits of such assays
experimental_context: source organism: Giardia lamblia ATCC 50803
value_type: Kd (nM)
One number for each entry, in nM.

Ask: Would you kindly share the measured Kd for "GMNPYHLAA" ?
Result: 65

====

system_name: HLA-A*24:02
method_summary: IEDB peptide-MHC binding, purified MHC/competitive/fluorescence; bounds were set here for any values at or beyond the usual limits of such assays
experimental_context: source organism: Vaccinia virus WR
value_type: IC50 (nM)
Give bare numbers, in nM.

Ask: // map "LYLVDYGLV" to recorded IC50 (system: HLA-A*24:02)
Result: 212

====

system_name: HLA-B*08:01
method_summary: IEDB peptide-MHC binding, purified MHC/direct/fluorescence; filed as Kd, often an IC50 or EC50 that approximates it; bounds were set here for any values at or beyond the usual limits of such assays
experimental_context: source organism: Aggregatibacter actinomycetemcomitans
value_type: Kd

Ask: Would you kindly share the measured Kd for "RSEVELCIY" ?
Result: ≥ 20 µM

====

system_name: HLA-A*68:02
method_summary: IEDB peptide-MHC binding, purified MHC/direct/fluorescence; filed as Kd, often an IC50 or EC50 that approximates it; bounds were set here for any values at or beyond the usual limits of such assays
experimental_context: source organism: Burkholderia mallei ATCC 23344
pKd: −log10 of the molar value.
value_type: pKd

Ask: Would you kindly share the measured pKd for "LARFPCNVI" ?
Result: ≤ 4.70

====

system_name: HLA-A*02:01
method_summary: IEDB peptide-MHC binding, purified MHC/direct/fluorescence; filed as Kd, often an IC50 or EC50 that approximates it; bounds were set here for any values at or beyond the usual limits of such assays
experimental_context: source organism: Camelpox virus M-96
pKd: −log10 of the molar value.
I'd be grateful if you could share measured pKd for these entries.

| sequence_record | pKd |
| --- | --- |
| LLRDKDGVY | ≤ 4.70 |

Next sequence, pKd to be filled in.
Ask: // map "WENGFKVVL" to recorded pKd (system: HLA-A*02:01)
Result: ≤ 4.70

====

system_name: HLA-A*02:16
method_summary: IEDB peptide-MHC binding, purified MHC/direct/fluorescence; filed as Kd, often an IC50 or EC50 that approximates it; bounds were set here for any values at or beyond the usual limits of such assays
experimental_context: source organism: Convict Creek 107 virus
pKd: −log10 of the molar value.
value_type: pKd

Ask: // map "LFPELECFF" to recorded pKd (system: HLA-A*02:16)
Result: ≤ 4.70

====

system_name: HLA-A*02:01
method_summary: IEDB peptide-MHC binding, purified MHC/direct/fluorescence; filed as Kd, often an IC50 or EC50 that approximates it; bounds were set here for any values at or beyond the usual limits of such assays
experimental_context: source organism: Homo sapiens
value_type: Kd (nM)
One number for each entry, in nM.

Ask: Would you kindly share the measured Kd for "GLENGLNYI" ?
Result: 825

====

system_name: HLA-B*44:02
method_summary: IEDB peptide-MHC binding, purified MHC/direct/fluorescence; filed as Kd, often an IC50 or EC50 that approximates it; bounds were set here for any values at or beyond the usual limits of such assays
experimental_context: source organism: Influenza A virus (A/duck/Mongolia/47/2001(H7N1))
pKd: −log10 of the molar value.
value_type: pKd

Ask: Would you kindly share the measured pKd for "FLKDVMESM" ?
Result: ≤ 4.70

====

system_name: HLA-A*29:02
method_summary: IEDB peptide-MHC binding, purified MHC/competitive/fluorescence; filed as Kd, often an IC50 or EC50 that approximates it; bounds were set here for any values at or beyond the usual limits of such assays
experimental_context: source organism: Homo sapiens
I'd be grateful if you could share measured Kd for these entries.

| sequence_record | reported_measurement |
| --- | --- |
| YYSNKAYQY | ≤ 0.0001 µM |

Next sequence, Kd to be filled in.
Ask: Would you kindly share the measured Kd for "SQLPPACPV" ?
Result: ≥ 20 µM

====

system_name: HLA-C*06:02
method_summary: IEDB peptide-MHC binding, purified MHC/competitive/fluorescence; filed as Kd, often an IC50 or EC50 that approximates it; bounds were set here for any values at or beyond the usual limits of such assays
experimental_context: source organism: Yersinia pestis CO92
value_type: Kd (nM)
Give bare numbers, in nM.

Ask: Would you kindly share the measured Kd for "YSFSRAYTL" ?
Result: 47.8

====

system_name: HLA-B*08:01
method_summary: IEDB peptide-MHC binding, purified MHC/direct/fluorescence; filed as Kd, often an IC50 or EC50 that approximates it; bounds were set here for any values at or beyond the usual limits of such assays
experimental_context: source organism: Sudan ebolavirus - Maleo (1979)
value_type: Kd

Ask: // map "MHYKLDEVL" to recorded Kd (system: HLA-B*08:01)
Result: ≥ 20 µM

====

system_name: HLA-A*02:01
method_summary: IEDB peptide-MHC binding, purified MHC/competitive/fluorescence; filed as Kd, often an IC50 or EC50 that approximates it; bounds were set here for any values at or beyond the usual limits of such assays
experimental_context: source organism: Choclo virus
value_type: Kd

Ask: Would you kindly share the measured Kd for "KACDLAMCY" ?
Result: ≥ 20 µM
